B1: BCL2L13 (parent)
chain: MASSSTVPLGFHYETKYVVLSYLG

- Variants of: B1
- PROTOCOL TEXT: protein stability index of a GFP-peptide fusion (GPS, HEK-293T) (PSI 1-6); higher = more stable;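 further: lentivirally expressed fusions sorted by FACS into six bins by GFP to DsRed ratio, PSI derived from sequencing read proportions per bin multiplied by bin number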
- CONDITION: c terminus: a fixed tail appended
Categorize each record by its protein stability index using bin 1 = under 2, bin 2 = from 2 up to 3, bin 3 = 3 and over

Past entries and their recorded results:
   mutant  label_class
0     T6N        bin 2
1    H12F        bin 3
2    G10F        bin 2
3    S21W        bin 3
4    Y22P        bin 1

Prompt line: Please indicate the class for `V18F` based on its protein stability index.
Response line: bin 3

Prompt line: Class label required: `F11M`
Response line: bin 2

Prompt line: In plain terms, what class is `K16N` ?
Response line: bin 3

Prompt line: For the record `K16D` , report the class its protein stability index corresponds to.
Response line: bin 3
